Assignment: determine reported melting point for the given compounds.
Where a name gives a salt, the structure may show the parent alone.

Entry CCCCNC(=O)C1CCN(c2cc(-c3ccccc3)nc3ccsc23)CC1.Cl : reported melting point = ?
170 to 172 °C (dec.)

Entry Cl.O=C(NC1CC1)C1CCN(c2cc(-c3ccccc3)nc3ccsc23)CC1 : reported melting point = ?
199 to 201 °C (dec.)

Entry NC(=O)C1CCN(c2cc(-c3ccc(F)cc3)nc3ccsc23)CC1 : reported melting point = ?
251 to 253 °C

Entry c1ccc(-c2cc(N3CCOCC3)c3sccc3n2)cc1 (as salt: hydrochloride) : reported melting point = ?
195 to 198 °C

Entry CNC(=O)N1CCN(c2cc(-c3ccccc3)nc3ccsc23)CC1.Cl : reported melting point = ?
185 to 190 °C

Entry CCCNC(=O)C1CCN(c2cc(-c3ccc(F)cc3)nc3ccsc23)CC1.Cl : reported melting point = ?
207 to 209 °C (dec.)

Entry CCNC(=O)N1CCN(c2cc(-c3cccc(OC)c3)nc3ccsc23)CC1.Cl : reported melting point = ?
> 198 °C

Entry COC(=O)C1CCN(c2cc(-c3ccccc3)nc3sccc23)CC1.Cl : reported melting point = ?
> 220 °C (dec.)

Entry CN(C)CCNC(=O)C1CCN(c2cc(-c3ccc(F)cc3)nc3ccsc23)CC1.Cl : reported melting point = ?
180 to 182 °C (dec.)

Entry Cl.O=C(NCc1cccc(F)c1)C1CCN(c2cc(-c3ccccc3)nc3ccsc23)CC1 : reported melting point = ?
236 to 238 °C (dec.)

These data points were gathered from patent US6423711B1.
